Biological target: T1, truncated cTfR1 of SEQ ID NO:123 (cynomolgus monkey, UniProt Q5RDH6 122-760 (Pongo abelii entry))
T1 construct: also called cynomolgus TfR1
T1 chain: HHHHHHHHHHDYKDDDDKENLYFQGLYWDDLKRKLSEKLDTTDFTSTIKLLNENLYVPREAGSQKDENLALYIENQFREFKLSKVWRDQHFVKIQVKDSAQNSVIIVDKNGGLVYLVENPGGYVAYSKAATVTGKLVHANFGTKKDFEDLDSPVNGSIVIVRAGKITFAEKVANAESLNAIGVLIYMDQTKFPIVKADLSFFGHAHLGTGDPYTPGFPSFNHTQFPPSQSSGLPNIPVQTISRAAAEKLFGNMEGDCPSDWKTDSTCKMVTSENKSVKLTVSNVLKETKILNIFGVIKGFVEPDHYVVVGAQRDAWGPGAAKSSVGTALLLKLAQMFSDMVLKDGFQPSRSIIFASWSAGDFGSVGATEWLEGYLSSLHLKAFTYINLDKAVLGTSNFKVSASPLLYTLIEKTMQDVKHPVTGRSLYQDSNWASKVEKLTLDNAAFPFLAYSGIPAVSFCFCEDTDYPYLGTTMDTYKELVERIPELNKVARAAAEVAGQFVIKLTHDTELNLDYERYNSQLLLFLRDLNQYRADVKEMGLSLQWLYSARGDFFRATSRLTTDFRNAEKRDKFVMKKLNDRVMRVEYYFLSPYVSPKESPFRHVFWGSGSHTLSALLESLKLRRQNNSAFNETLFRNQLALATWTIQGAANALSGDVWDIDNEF
Assay: SPR, FLAG-captured TfR1, scFv injected, 1:1 fit
OUTCOME_MEASURE: kon
Include the unit after the number when you answer.

Before answering, review these 2 worked examples.
>>> observed("h26D3 HC6 DS T120K (scFv, also called h26D3 DS T120K) scFv: HHHHHHGGGGSGGGGSGGGGSGGGGSDIQMTQSPSSVSASVGDRVTITCKSSQSLLYSTNQKNYLAWYQQKPGKAPKLLIYWASTRESGVPSRFSGSGSGTDFTLTISSLQPEDFATYYCQQYFIYPRTFGCGTKVEIKGGGGSGGGGSGGGGSGGGGSEVQLVQSGAEVKKPGSSVKVSCKASGYIFTDYNMDWVRQAPGQCLEWIGDINPDADTTSYNEKFKGRATLTVDKSTSTAYMELSSLRSEDTAVYYCARGGYSGSSYYHPMDYWGQGTLVKVSS")
"57400 M⁻¹ s⁻¹"
>>> observed("h26D3 HC6 DS S16E (scFv, also called h26D3 DS S16E) scFv: HHHHHHGGGGSGGGGSGGGGSGGGGSDIQMTQSPSSVSASVGDRVTITCKSSQSLLYSTNQKNYLAWYQQKPGKAPKLLIYWASTRESGVPSRFSGSGSGTDFTLTISSLQPEDFATYYCQQYFIYPRTFGCGTKVEIKGGGGSGGGGSGGGGSGGGGSEVQLVQSGAEVKKPGESVKVSCKASGYIFTDYNMDWVRQAPGQCLEWIGDINPDADTTSYNEKFKGRATLTVDKSTSTAYMELSSLRSEDTAVYYCARGGYSGSSYYHPMDYWGQGTLVTVSS")
"43800 M⁻¹ s⁻¹"

Exam item: Requested field: kon. Item: h26D3 HC6 DS T91S S122K (scFv, also called h26D3 DS T91S S122K) scFv: HHHHHHGGGGSGGGGSGGGGSGGGGSDIQMTQSPSSVSASVGDRVTITCKSSQSLLYSTNQKNYLAWYQQKPGKAPKLLIYWASTRESGVPSRFSGSGSGTDFTLTISSLQPEDFATYYCQQYFIYPRTFGCGTKVEIKGGGGSGGGGSGGGGSGGGGSEVQLVQSGAEVKKPGSSVKVSCKASGYIFTDYNMDWVRQAPGQCLEWIGDINPDADTTSYNEKFKGRATLTVDKSTSTAYMELSSLRSEDSAVYYCARGGYSGSSYYHPMDYWGQGTLVTVKS
Marked response: 48600 M⁻¹ s⁻¹
